B1: library; numbered along this chain (parent)
chain: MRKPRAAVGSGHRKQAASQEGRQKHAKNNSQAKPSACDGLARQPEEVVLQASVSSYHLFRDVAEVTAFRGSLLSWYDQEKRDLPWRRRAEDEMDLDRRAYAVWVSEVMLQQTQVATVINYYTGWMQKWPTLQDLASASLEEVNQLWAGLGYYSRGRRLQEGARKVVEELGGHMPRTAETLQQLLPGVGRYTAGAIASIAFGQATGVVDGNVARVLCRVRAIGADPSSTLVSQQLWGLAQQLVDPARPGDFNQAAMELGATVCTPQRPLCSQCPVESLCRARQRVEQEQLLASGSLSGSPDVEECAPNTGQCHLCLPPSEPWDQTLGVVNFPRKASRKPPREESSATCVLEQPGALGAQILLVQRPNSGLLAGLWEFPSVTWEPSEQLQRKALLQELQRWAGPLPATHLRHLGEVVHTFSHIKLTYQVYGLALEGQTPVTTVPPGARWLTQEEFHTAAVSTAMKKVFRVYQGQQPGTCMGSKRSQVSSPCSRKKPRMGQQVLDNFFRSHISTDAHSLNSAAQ

- Variants of: B1
- Test Description: 8OG:A repair function score (normalized; synonymous = 0, nonsense = -1) (normalized log-likelihood score); higher = more repair activity (WT-like);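 also: cells sorted at 72 h after reporter transfection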
- Assay Setup: with 8OG:A DNA repair reporter (GFP) in HEK-293 MUTYH KO cells
Would you mind classing the entries by 8OG:A repair function score? Ranges: low: < -0.4; middle: ≥ -0.4 and < -0.04; high: ≥ -0.04

In plain terms, what class is C347G ?
middle

Band for the recorded 8OG:A repair function score of E341D ?
high

Place this variant in its band: V301G
middle

Class? Entry: R482D
high

Category lookup for the variant C278P
low

State the class of the variant shown: R246Y
low

Using the reported 8OG:A repair function score, which band applies to V206R ?
low

Exercise: read the entry A192H and state which class it falls under.
low

Assign a category based on measured 8OG:A repair function score for D512T and give only the class name.
middle

Hey, which category is A519Q in, do you know?
high

# classify by 8OG:A repair function score band: Y425H
middle

For this variant, which bin applies? L516G
high

Kindly identify the class of W128C .
low

Please classify: V211T
low

Place this variant in its band: F59R
low

Category of R98V , please.
middle

Tag the class for F59S
low

Bin? E451P
middle

Band for the recorded 8OG:A repair function score of V485I ?
high

Field: class (8OG:A repair function score) — entry: E385K
low

Which category does the recorded 8OG:A repair function score put V62S in?
high

Which class is correct for the following variant? A203I
high

Field: class (8OG:A repair function score) — entry: K390F
middle

Which band does E178H fall in?
middle

State the band of E342G
high

Categorize the following entry: T112G
low

Sort K127V into one of the categories.
middle

Field: class (8OG:A repair function score) — entry: N329Q
high

Which class holds Y152V ?
low

Hi, small favor: classify C272T by its 8OG:A repair function score when you get a moment.
low

Band for the recorded 8OG:A repair function score of R157M ?
middle

Classify this variant: L180R
low

Which class is correct for the following variant? N143F
high

Field: class (8OG:A repair function score) — entry: S486A
high

Hello team, could you let me know which band the following variant falls into: Q50W
high

Band of Q310P ?
high

Which category fits this record: F330E
low

Where would T440V land among the classes by reported 8OG:A repair function score?
middle

Band for the recorded 8OG:A repair function score of G353R ?
high

Record T460A — which class?
high

Sort G193F into one of the categories.
low

Which class does A254S fall in?
middle

Which band does V53A fall in?
high

Which 8OG:A repair function score category applies to T112W here?
low

Returns: class label. Input: E45I
high
